Target: Proteasome Macropain subunit (Homo sapiens)
Experiment: Inhibition of trypsin like activity of 26S proteasome beta 2 subunit in human U266 cells assessed as residual activity using […] as substrate at 10 uM preincubated for 1 hr followed by substrate addition and measured after 4 hrs by fluorescence assay relative to control
Type: cell-based
Lab note: anything with Activity at or over 60% counts as Fulfilled; the rest go in Not fulfilled.

Input line: # bool: Activity of `CC(C)C[C@H](NC(=O)c1cc(Cl)ccc1O)C(=O)N[C@@H](Cc1ccccc1)C(=O)N[C@H](C=O)Cc1ccccc1` >= 60%
Output line: Fulfilled

Input line: # bool: Activity of CC(C)CC(C=O)NC(=O)[C@H](Cc1ccccc1)NC(=O)c1cc(Cl)ccc1OCc1ccccc1 (stereo not given in full) >= 60%
Output line: Fulfilled

Input line: # bool: Activity of `CC(C)C[C@@H](C=O)NC(=O)[C@H](Cc1ccccc1)NC(=O)[C@H](CC(C)C)NC(=O)c1cc(Cl)ccc1O` >= 60%
Output line: Fulfilled

Input line: # bool: Activity of `O=C[C@H](Cc1ccccc1)NC(=O)c1cc(Cl)ccc1OCc1ccccc1` >= 60%
Output line: Fulfilled

Input line: # bool: Activity of CC(C)CC(C=O)NC(=O)[C@H](Cc1ccccc1)NC(=O)[C@H](CC(C)C)NC(=O)c1cc(Cl)ccc1OCc1ccccc1 (stereo not given in full) >= 60%
Output line: Fulfilled

Input line: # bool: Activity of `CC(C)C[C@@H](C=O)NC(=O)[C@H](CC(C)C)NC(=O)[C@H](CC(C)C)NC(=O)c1cc(Cl)ccc1OCc1ccccc1` >= 60%
Output line: Not fulfilled

Input line: # bool: Activity of CC(C)C[C@H](NC(=O)c1cc(Cl)ccc1OCc1ccccc1)C(=O)N[C@@H](CC(C)C)C(=O)NC(C=O)Cc1ccccc1 (stereo not given in full) >= 60%
Output line: Not fulfilled

Input line: # bool: Activity of `CC(C)C[C@@H](C=O)NC(=O)[C@H](Cc1ccccc1)NC(=O)[C@H](CC(C)C)NC(=O)c1cc(Cl)ccc1OCc1ccccc1` >= 60%
Output line: Not fulfilled

Input line: # bool: Activity of CC(C)C[C@H](NC(=O)c1cc(Cl)ccc1OCc1ccccc1)C(=O)N[C@@H](Cc1ccccc1)C(=O)NC(C=O)Cc1ccccc1 (stereo not given in full) >= 60%
Output line: Fulfilled

Input line: # bool: Activity of `CC(C)C[C@H](NC(=O)c1cc(Cl)ccc1OCc1ccccc1)C(=O)N[C@H](C=O)Cc1ccccc1` >= 60%
Output line: Fulfilled

Input line: # bool: Activity of `CC(C)C[C@H](NC(=O)c1cc(Cl)ccc1OCc1ccccc1)C(=O)N[C@@H](Cc1ccccc1)C(=O)N[C@@H](C=O)CC(C)C` >= 60%
Output line: Fulfilled

Input line: # bool: Activity of `CC(C)C[C@H](NC(=O)c1cc(Cl)ccc1O)C(=O)N[C@H](C=O)Cc1ccccc1` >= 60%
Output line: Fulfilled

Input line: # bool: Activity of `CC(C)C[C@H](NC(=O)c1cc(Cl)ccc1OCc1ccccc1)C(=O)N[C@@H](CC(C)C)C(=O)N[C@@H](C=O)CC(C)C` >= 60%
Output line: Fulfilled

Input line: # bool: Activity of `CC(C)C[C@H](NC(=O)c1cc(Cl)ccc1OCc1ccccc1)C(=O)N[C@@H](Cc1ccccc1)C(=O)N[C@H](C=O)Cc1ccccc1` >= 60%
Output line: Not fulfilled

Input line: # bool: Activity of `CC(C)C[C@H](NC(=O)[C@H](Cc1ccccc1)NC(=O)c1cnccn1)B(O)O` >= 60%
Output line: Fulfilled
